# Design: species or system CD-1 mice
# SETUP CONDITIONS: mouse, in vivo
Quick reference: Initial Volume of Distribution in Brain Vi of the listed items.
Report the value in µL/g with no unit label.

Examples from the recorded data:
| SUBSTANCE | VALUE UNIT | ASSAY VALUE |
| --- | --- | --- |
| HAEGTFTSDVSSYLEGQAAK^aEFIAWLVRGRG-OH [Liraglutide] | µL/g | 2.434 |
| YXEGTFTSDYSIYLDKQAAXEFVNWLLAGGPSSGAPPPSK-NH2 [DA3-CH] | µL/g | 2.186 |
| YXEGTFTSDYSIYLDKQAAXEFVNWLLAGGPSSGAPPPSK-NH2 [Peptide 18] | µL/g | 0.2034 |
| YXEGTFTSDYSIYLDKQAAXEFVNWLLAGGPSSGAPPPSC-NH2 [Peptide 17] | µL/g | 1.057 |
| YXEGTFTSDYSIYLDKQAAXEFVNWLLAGGPSSGAPPPSKKKKKK-NH2 [DA-JC4] | µL/g | 2.495 |

What the record says about YXEGTFTSDYSIYLDKQAAXEFVC ^*WLLAGGPSSGAPPPSK-NH2 [Peptide 20] : Initial Volume of Distribution in Brain Vi is 0.4075

Summary for this substance, HXEGTFTSDVSSYLEGQAAK^bEFIAWLVRGRG-OH [Semaglutide] : Initial Volume of Distribution in Brain Vi is -0.340

* * *

# Format: physicochemical
# SETUP CONDITIONS: pH 7.5
OBSERVED PROPERTY: Lipid Solubility Partition Coefficient
Keep the answer to the number alone.

| SUBSTANCE | OBSERVED PROPERTY | ASSAY VALUE |
| --- | --- | --- |
| HXEGTFTSDVSSYLEGQAAK^bEFIAWLVRGRG-OH [Semaglutide] | Lipid Solubility Partition Coefficient | 0.0353 |
| YXEGTFTSDYSIYLDKQAAXEFVC ^*WLLAGGPSSGAPPPSK-NH2 [Peptide 20] | Lipid Solubility Partition Coefficient | 0.0057 |
| YXEGTFTSDYSIYLDKQAAXEFVNWLLAGGPSSGAPPPSKKKKKK-NH2 [DA-JC4] | Lipid Solubility Partition Coefficient | 0.0030 |

GET /value?item= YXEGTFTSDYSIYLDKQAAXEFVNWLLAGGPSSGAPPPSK-NH2 [Peptide 18] &field=Lipid Solubility Partition Coefficient returns 0.2493

Entry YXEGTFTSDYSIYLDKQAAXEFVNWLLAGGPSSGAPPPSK-NH2 [DA3-CH] ; Lipid Solubility Partition Coefficient = 0.0048

Entry YXEGTFTSDYSIYLDKQAAXEFVNWLLAGGPSSGAPPPSC-NH2 [Peptide 17] , Lipid Solubility Partition Coefficient reported as 0.0052

* * *

# Set-up: species or system CD-1 mice
# SETUP CONDITIONS: mouse, in vivo, iv
Marks after values point to notes of the source that are not given here.
OBSERVED PROPERTY: 125I-IRA remaining intact, Serum, 60 min

Some entries whose results are on file:
| SUBSTANCE | OBSERVED PROPERTY | ASSAY VALUE |
| --- | --- | --- |
| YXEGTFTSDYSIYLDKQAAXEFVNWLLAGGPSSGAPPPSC-NH2 [Peptide 17] | 125I-IRA remaining intact, Serum, 60 min | 81.20 ± 1.960^a % |
| HXEGTFTSDVSSYLEGQAAK^bEFIAWLVRGRG-OH [Semaglutide] | 125I-IRA remaining intact, Serum, 60 min | 98.91 ± 0.029^a % |
| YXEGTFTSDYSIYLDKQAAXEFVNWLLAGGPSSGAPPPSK-NH2 [DA3-CH] | 125I-IRA remaining intact, Serum, 60 min | 73.65 ± 3.138^a % |
| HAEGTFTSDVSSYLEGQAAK^aEFIAWLVRGRG-OH [Liraglutide] | 125I-IRA remaining intact, Serum, 60 min | 100.18 ± 0.244^a % |
| YXEGTFTSDYSIYLDKQAAXEFVNWLLAGGPSSGAPPPSKKKKKK-NH2 [DA-JC4] | 125I-IRA remaining intact, Serum, 60 min | 63.32 ± 1.987^a % |

Entry YXEGTFTSDYSIYLDKQAAXEFVC ^*WLLAGGPSSGAPPPSK-NH2 [Peptide 20] — recorded 125I-IRA remaining intact, Serum, 60 min = 93.80 ± 1.850^a %

response.value for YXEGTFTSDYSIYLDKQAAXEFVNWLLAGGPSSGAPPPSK-NH2 [Peptide 18] (field: 125I-IRA remaining intact, Serum, 60 min) = 90.78 ± 4.440%
